B1: PCDHGA10 (parent)
chain: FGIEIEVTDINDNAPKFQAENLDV

Variants of: B1
Test: protein stability index of a GFP-peptide fusion (GPS, HEK-293T) (PSI 1-6); higher = more stable;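 further: lentivirally expressed fusions sorted by FACS into six bins by GFP to DsRed ratio, PSI derived from sequencing read proportions per bin multiplied by bin number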
Conditions: c terminus: a fixed tail appended
Output class 1 for protein stability index not less than 3; output class 0 otherwise.

Input: Does the variant N21M have recorded protein stability index that is 3 or more?
Output: class 0

Input: Does the variant D23F have recorded protein stability index that is 3 or more?
Output: class 0

Input: Does the variant L22G have recorded protein stability index that is 3 or more?
Output: class 1

Input: Does the variant E20N have recorded protein stability index that is 3 or more?
Output: class 0

Input: Does the variant V24I have recorded protein stability index that is 3 or more?
Output: class 0

Input: Does the variant L22E have recorded protein stability index that is 3 or more?
Output: class 1

Input: Does the variant P15F have recorded protein stability index that is 3 or more?
Output: class 0

Input: Does the variant I5R have recorded protein stability index that is 3 or more?
Output: class 1

Input: Does the variant V7I have recorded protein stability index that is 3 or more?
Output: class 0

Input: Does the variant I10C have recorded protein stability index that is 3 or more?
Output: class 1

Input: Does the variant Q18A have recorded protein stability index that is 3 or more?
Output: class 0

Input: Does the variant D9F have recorded protein stability index that is 3 or more?
Output: class 0

Input: Does the variant I10P have recorded protein stability index that is 3 or more?
Output: class 1

Input: Does the variant F17E have recorded protein stability index that is 3 or more?
Output: class 1

Input: Does the variant F1C have recorded protein stability index that is 3 or more?
Output: class 1

Input: Does the variant D12I have recorded protein stability index that is 3 or more?
Output: class 0

Input: Does the variant Q18D have recorded protein stability index that is 3 or more?
Output: class 1
